These measurements were taken from ChEMBL document CHEMBL3046791.

# TEST DETAILS: Partition coefficient, log P of the compound
# Format: physicochemical
# CONDITION NOTES: octanol/water
ATTRIBUTE MEASURED: logP

Observe how each entry below is paired with its result.
| SMILES DATA | logP |
| --- | --- |
| Cc1cc(=O)[nH]c2cc(NC(=O)c3c(Br)cccc3Br)ccc12 | 1.75 |
| Cc1cc(=O)[nH]c2cc(NC(=O)c3ccccc3Cl)ccc12 | 1.55 |
| Cc1cc(=O)[nH]c2cc(NC(=O)c3c([N+](=O)[O-])cccc3[N+](=O)[O-])ccc12 | 1.82 |

A = COc1ccc(C(=O)Nc2ccc3c(C)cc(=O)[nH]c3c2)cc1OC
B = CC(=O)Nc1ccc2c(C)cc(=O)[nH]c2c1
Q: A or B : whose logP is greater? // output: label of the selected item
A: A
(A: 1.46, B: 0.995)

I = Cc1cc(=O)[nH]c2cc(NC(=O)c3ccc(Cl)cc3Cl)ccc12
II = Cc1cc(O)nc2cc(N)ccc12
Q: I or II : whose logP is greater? // output: label of the selected item
A: I

* * *

# TEST DETAILS: Partition coefficient, log P of the compound
# Format: physicochemical
# CONDITION NOTES: octanol/water
ATTRIBUTE MEASURED: logP

| SMILES DATA | logP |
| --- | --- |
| Cc1ccccc1C(=O)Nc1ccc2c(C)cc(=O)[nH]c2c1 | 1.71 |
| Cc1cc(=O)[nH]c2cc(NC(=O)c3ccccc3)ccc12 | 1.66 |
| Cc1cc(=O)[nH]c2cc(NC(=O)/C=C/c3ccccc3)ccc12 | 1.69 |
| Cc1cc(=O)[nH]c2cc(NC(=O)c3cccc4ccccc34)ccc12 | 1.72 |
| Cc1cc(=O)[nH]c2cc(NC(=O)c3ccc(F)cc3)ccc12 | 1.61 |
| Cc1cc(=O)[nH]c2cc(NC(=O)c3ccc([N+](=O)[O-])cc3)ccc12 | 1.63 |
| Cc1cc(=O)[nH]c2cc(NC(=O)c3ccc(Cl)cc3)ccc12 | 1.69 |
| Cc1ccc(C(=O)Nc2ccc3c(C)cc(=O)[nH]c3c2)cc1 | 1.67 |
| Cc1cc(=O)[nH]c2cc(NC(=O)c3cccc(Cl)c3)ccc12 | 1.69 |
